assay: Compounds' toxicity, CellTiter 96 AQueous One Solution Cell Proliferation Assay; format: cell-based; settings: human, HeLa-CD4-LTR-β-gal cells, supplement CSV; read-out: CC50
Consider the following molecules; for each one, report its CC50 at 24 h.

q: Using the record for O=C(O)c1cn(Cc2ccc(F)cc2)c2ccc(OCc3ccc4c(c3)OCO4)cc2c1=O [4q] , report its CC50 at 24 h.
a: > 50 µM

q: Same thing, different molecule: O=C(O)c1cn(Cc2ccc(F)cc2)c2ccc(OCCCCc3ccccc3)cc2c1=O [4r]
a: > 50 µM

q: Same thing, different molecule: O=C(O)c1cn(Cc2ccc(F)cc2)c2ccc(OCc3ccc(-c4ccccc4)cc3)cc2c1=O [4s]
a: > 16 µM

q: Same thing, different molecule: O=C(O)c1cn(Cc2ccc(F)cc2)c2ccc(OCc3ccc4ccccc4c3)cc2c1=O [4p]
a: > 50 µM

q: Same thing, different molecule: O=C(O)c1cn(Cc2ccc(F)cc2)c2ccc(OCc3cccc(Cl)c3Cl)cc2c1=O [4m]
a: > 50 µM

q: Same thing, different molecule: CCOC(=O)c1cn(Cc2ccc(F)cc2)c2ccc(OCc3cccc(Cl)c3Cl)cc2c1=O [5m]
a: 23.9 µM
